- target_entity: T1, ALPI expressed on the surface of CHO cells (CHO-ALPI) (Homo sapiens, UniProt P09923)
- T1 construct: expressed in transfected cells
- T1 sequence (P09923 20-503 limits assumed): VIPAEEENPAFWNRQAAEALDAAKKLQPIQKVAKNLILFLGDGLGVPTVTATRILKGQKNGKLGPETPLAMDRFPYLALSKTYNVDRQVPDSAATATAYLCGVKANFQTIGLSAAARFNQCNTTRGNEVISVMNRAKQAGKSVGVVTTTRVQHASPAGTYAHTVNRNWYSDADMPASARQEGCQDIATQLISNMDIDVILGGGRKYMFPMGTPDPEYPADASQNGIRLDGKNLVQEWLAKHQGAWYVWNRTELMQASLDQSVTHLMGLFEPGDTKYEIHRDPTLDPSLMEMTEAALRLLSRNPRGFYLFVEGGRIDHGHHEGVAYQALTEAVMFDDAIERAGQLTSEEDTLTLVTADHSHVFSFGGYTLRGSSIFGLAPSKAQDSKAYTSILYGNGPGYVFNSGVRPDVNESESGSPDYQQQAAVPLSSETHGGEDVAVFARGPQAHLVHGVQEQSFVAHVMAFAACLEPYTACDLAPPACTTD
- assay_protocol: Cell-surface binding by flow cytometry, CHO-ALPI
- cond: VHH His proteins, flow cytometry, up to 350 nM

molecule	KDapp CHO-ALPI
A05: ALPP/ALPPL2 targeting VHH domain, SEQ ID NO: 16; tested C-terminally His-tagged (protein, C-terminal His tag, tested C-terminally His-tagged) VHH: QVQLVESGGGLVQAGASLTLSCAASGFTFNTRSIVWFRQAPGKEREAVSCISKVAGSTYYGDSVQGRFSSSTDNAKNTVSLQMNSLKPEDTAVYTCAASFAPNCYGWSVAANMEYWGEGTMVTVSS	No binding
D10: ALPP targeting VHH domain, SEQ ID NO: 28 (protein) VHH: QVQLVESGGGLVQPGGSLRLSCAASGSIFSVNTMGWYRQAPGKQRDLVAVATSGGTIHYADSVKGRFTISRDNAKNTVYLQMNSLKPEDTAVYYCNLVVPYGMIAGDHDYWGQGTKVTVSS	No binding
F05: ALPP/ALPPL2 targeting VHH domain, SEQ ID NO: 34 (protein) VHH: QVQLVESGGGLVQAGGSLRLSCAASGRAFGDYNIGWFRQAPGKEREFVARRTWDGSSTRYDDSVKGRFTVSIDNAKNTAYLQMNSLKTEDTAVYYCAAGRYSRVRGWEYDYWGQGTQVTVSS	No binding
